TEST TARGET: 5-HT1f receptor (Homo sapiens)
Sequence (P30939 1-366): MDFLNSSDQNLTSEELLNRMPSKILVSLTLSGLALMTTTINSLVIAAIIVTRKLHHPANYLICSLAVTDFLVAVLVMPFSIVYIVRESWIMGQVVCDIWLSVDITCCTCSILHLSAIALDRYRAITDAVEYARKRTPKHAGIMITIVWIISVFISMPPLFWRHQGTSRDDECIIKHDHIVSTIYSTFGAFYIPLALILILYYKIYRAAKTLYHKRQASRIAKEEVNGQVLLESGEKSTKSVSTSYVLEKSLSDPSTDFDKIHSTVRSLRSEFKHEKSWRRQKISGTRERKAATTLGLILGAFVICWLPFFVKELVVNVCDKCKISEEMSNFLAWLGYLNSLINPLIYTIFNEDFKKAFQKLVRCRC
QUANTITY NAME: Ki (nM)
Field format: number, assumed nM, no unit text.

Request: Find the measured Ki of C[C@H]1CN(c2ccc(C(F)(F)F)c3ccoc23)CCN1.O=C(O)/C=C/C(=O)O [Example 1, fumarate] and report it.
Response: 163

Request: Specify reported Ki for the molecule shown: CC[C@H]1CN(c2ccc(C(F)(F)F)c3ccoc23)CCN1.O=C(O)/C=C/C(=O)O [Example 2, fumarate]
Response: 1000
